Where do the numbers come from? From patent US5010074A.

Target: dopamine D1 receptor (Rattus norvegicus, UniProt P18901)
Construct: homogenates from rat striatum; from tissue; host or cells: rat striatum homogenate
Sequence (P18901 whole entry): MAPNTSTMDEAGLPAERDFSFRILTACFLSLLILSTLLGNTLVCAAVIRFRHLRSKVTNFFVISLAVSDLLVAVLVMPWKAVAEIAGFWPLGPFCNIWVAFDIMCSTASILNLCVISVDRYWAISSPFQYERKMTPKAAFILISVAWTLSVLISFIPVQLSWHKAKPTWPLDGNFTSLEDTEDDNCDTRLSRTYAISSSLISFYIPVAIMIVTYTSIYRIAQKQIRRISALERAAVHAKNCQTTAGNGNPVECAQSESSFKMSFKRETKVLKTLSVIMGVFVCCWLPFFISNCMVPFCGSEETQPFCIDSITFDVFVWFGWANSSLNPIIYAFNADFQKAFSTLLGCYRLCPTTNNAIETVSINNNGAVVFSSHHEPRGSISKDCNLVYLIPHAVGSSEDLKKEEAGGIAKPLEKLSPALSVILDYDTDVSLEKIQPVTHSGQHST
Assay: binding to dopamine D1 receptor in homogenates from rat striatum
Details: Table I; rat striatum homogenates; (+) enantiomere or racemic mixtures; read-out: Ki Dopamine D1 receptor
Examples of molecules with documented pKi follow.
pKi here: minus log base 10 of the concentration, concentration in moles per litre.

These recorded examples may help you get a feel for the data.
MOLECULE	pKi
CN1CCc2cc([N+](=O)[O-])c(O)cc2[C@@H]2c3ccccc3CC[C@H]21 (relative stereo) [Example 7]	6.77
CN1CCc2cc([N+](=O)[O-])c(O)cc2C(c2ccccc2F)C1 (stereo not drawn) [Example 1]	7.38
CN1CCc2cc([N+](=O)[O-])c(O)cc2C(c2cccc3c2OCC3)C1 (single isomer, unassigned; (+)) [Example 5]	7.96

// fetch dopamine D1 receptor (Rattus norvegicus, UniProt P18901) pKi for CN1CCc2cc([N+](=O)[O-])c(O)cc2C(c2ccc3c(c2)CCC3)C1 (stereo not drawn) [Example 6] 7.06

// fetch dopamine D1 receptor (Rattus norvegicus, UniProt P18901) pKi for CN1CCc2cc([N+](=O)[O-])c(O)cc2[C@@H](c2ccccc2)C1 [Example 4] 7.89

// fetch dopamine D1 receptor (Rattus norvegicus, UniProt P18901) pKi for Cc1ccccc1C1CN(C)CCc2cc([N+](=O)[O-])c(O)cc21 (stereo not drawn) [Example 3] 7.55
